Attribution: patent US9073965B2

- System: female CBA/J mice
- test: In vivo toxicity, bolus ip
- applied.conditions: 5 mg/kg bolus ip, day 5
Non-standard residues stand in square brackets, D forms with d. Residues, ends and D or L forms follow the SMILES beside them. Nva = CCC[C@H](N)C(=O)O
measure.name: Liver weight relative to total weight (%)

CCC[C@H](NC(=O)[C@@H]1CCCN1C(=O)[C@@H](NC(=O)[C@H](N)CC(N)=O)[C@@H](C)CC)C(=O)N[C@@H](CC(C)C)C(=O)N[C@@H](Cc1ccc(O)cc1)C(=O)N[C@H](CO)C(=O)N[C@@H](Cc1ccccc1)C(=O)N[C@@H](C)C(=O)N[C@H](CO)C(N)=O [ADP 355-NH2] (H-[dN]IP[Nva]LY[dS]FA[dS]-NH2) = 5.4
